- System: PC-3
- procedure details: NCI tumour cell line growth inhibition, 48 h
Where a name gives a salt, the structure may show the parent alone. Activity calls are given as the source filed them. No stated cut-off is given here; in the data, active = GI50 up to about 1.1 µM and inactive = higher.
reported endpoint: GI50

Examples with answers:
The recorded GI50 for entry CC(C)(C)C1CCC2c3c([nH]c4ccccc34)C3C(=O)N(c4ccc(C(=O)O)cc4)C(=O)C3C2C1 (stereo not given) equals 13.4 µM (inactive)

The recorded GI50 for entry `COC1=C(OC)C(=O)C(Cc2c(Cl)nc3sccn23)=C(C)C1=O` equals 14.2 µM (inactive)

The recorded GI50 for entry `CCCCCCCCCCC/C=C(/C(=O)CCCO[Si](C)(C)C(C)(C)C)C(=O)OC` equals > 100 µM (inactive)

The recorded GI50 for entry `COc1ccc2c(c1)C(=O)OCCC2` equals > 100 µM (inactive)

The recorded GI50 for entry `C=C(C[C@@H](O)[C@H](C)NC(=O)OCc1ccccc1)C(=O)OC(C)(C)C` equals > 100 µM (inactive)

For the 7 compounds below, give their GI50 values.
1. O=C(/C=C/c1ccc(Cl)cc1)Oc1ccc(C=C2CCC/C(=C\c3ccc(OC(=O)/C=C/c4ccc(Cl)cc4)cc3)C2=O)cc1
2. O=Cc1ccc(-c2ccc(-c3ccc(C=O)s3)o2)s1
3. O=C1c2ccccc2C(=O)c2c1ccc(C1C(=O)c3ccccc3C1=O)c2-c1c(C2C(=O)c3ccccc3C2=O)ccc2c1C(=O)c1ccccc1C2=O
4. CC1(C)CC(=O)c2c(nc3ccc4ccccc4c3c2-c2ccc(NC(=O)CCCCCCCCC(=O)Nc3ccc(-c4c5c(nc6ccc7ccccc7c46)CC(C)(C)CC5=O)cc3)cc2)C1
5. Nc1cc(CO)cc(Nc2nc3ccc(Cl)cc3c3[nH]c4ccccc4c23)c1
6. C[C@]12CC[C@H](O)CC1=CC[C@@H]1[C@@H]2CC[C@]2(C)C(=O)[C@@H](N3CCOCC3)C[C@@H]12
7. CNNCc1ccc(C(=O)NC(C)C)cc1 [PROCARBAZINE HYDROCHLORIDE]

Result:
["> 100 µM (inactive)", "> 100 µM (inactive)", "> 100 µM (inactive)", "> 100 µM (inactive)", "4.92 µM (inactive)", "> 100 µM (inactive)", "> 500 µM (inactive)"]

For the 4 compounds below, give their GI50 values.
1. Cc1nn(C(=O)Cc2ccccc2)c2c1C(c1ccc([N+](=O)[O-])cc1)SC(=N)N2 (stereo not given)
2. CCN(CC)CCN(C)CCc1ccc(Br)cc1
3. CN(C)CCCNC(=O)c1c(O)c2ccccc2n(C)c1=O
4. Nc1ncc2c(n1)-c1ccccc1OC2N1CCCCC1 (stereo not given)

Result:
1. > 100 µM (inactive)
2. 54 µM (inactive)
3. 67.6 µM (inactive)
4. > 100 µM (inactive)

For the 4 compounds below, give their GI50 values.
1. CCNCC(O)c1ccc(N)c([N+](=O)[O-])c1 (stereo not given)
2. N/N=C1N=C(Cl)/C(=C/c2ccco2)N\1
3. Cc1ccc(C(=O)N/N=C(\N=N\c2ccccc2)c2ccc(N(CCC#N)CCC#N)cc2C)cc1
4. CCN(CC)C(=S)N/N=C1\C(=O)Nc2ccccc21

Result:
["> 100 µM (inactive)", "36.7 µM (inactive)", "67.9 µM (inactive)", "0.334 µM (active)"]
